Biological target: human 4-1BB on CHO-K1 cells (human, UniProt Q07011 24-255)
Sequence (Q07011 24-255): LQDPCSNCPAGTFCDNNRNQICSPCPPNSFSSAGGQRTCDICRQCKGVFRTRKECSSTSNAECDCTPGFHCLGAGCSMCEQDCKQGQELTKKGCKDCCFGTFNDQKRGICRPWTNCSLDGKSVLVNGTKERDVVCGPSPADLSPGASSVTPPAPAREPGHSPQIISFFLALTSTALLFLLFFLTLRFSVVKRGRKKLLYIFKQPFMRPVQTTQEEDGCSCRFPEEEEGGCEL
Assay: FACS blocking of 4-1BBL
Readout Name: IC50 (nM)

Recorded results for 4 binders are shown here.
• PR001766 (antibody, V domains shown) VH: EVQLLESGGGLVQPGGSLRLSCAASGFTFSSYAMSWGRQAPGKGLEWVSSISGSGGSTYYADSVKGRFTISRDNSKNTLYLQMNSLRAEDTAVYYCAKEKTGTTGDYYYDMDVWGQGTTVTVSS = 4.34
• PR001763 (antibody, V domains shown) VH: EVQLLESGGGLVQPGGSLRLSCTASGFTFSNYAMSWVRQAPEKGLEWVSSISGSGGSTFYADSVKGRFTISRDNSKNTLYLQMNRLTAEDTAVYYCAKEGSNGTDDYHYDIDVWGQGTTVTVSS = 4.99
• PR001759 (antibody, V domains shown) VH: EVQLLESGGGLVQPGGSLRLSCAASGFTFSSYAMSWFRQPPETGLQWVSSIGGSGGDTYYADSVKGRFTISRDNSKNTLYLQMNSLRAEDTAVYYCAKEGSNGTDDNYYDVDVWGQGTTVTVSS = 2.31
• PR001764 (antibody, V domains shown) VH: EVQLLESGGGLVQPGGSLRLSCAASGFTFSSYAMSWVRQAPEKGLEWVSAISGGGGSTYYADSVKGRFTISRDNSKNTLYLQMDSLKAEDTAVYYCAKEGTTETDDYHYNMDVWGQGTTVTVSS = 2.79

(1) PR001758 (antibody, V domains shown) VH: EVQLLESGGGLVQLGGSLRLSCAASGFTFSRYAMTWVRQAPEKGLEWVSSISGSGDDTYYGDSVKGRFTISRDNSQNTVYLQMNSLRAEDTAVYFCAKEKAGTTGDYYYNVDVWGQGTTVTVSS
(2) PR001760 (antibody, V domains shown) VH: EVQLVESGGGVVQPGGSLRLSCAASGFTFSNYAMTWVRQAPEKGLEWVSSISGSGVSTYYADSVKGRFTISRDNSKNTLYLQMTRLTAEDTAVYFCAKEGSSETDDHYYNVDVWGQGTTVTVSS
Field: lower recorded IC50 (choose 1 or 2 ) // return label of chosen record
2

Cited source for all entries: patent US20230242658A1
